- Tested on: K. pneumoniae ATCCBAA-1705
- Assay Text: MIC, CLSI broth microdilution, Test Example 1
- Format: cell-based
- Applied Conditions: Klebsiella pneumoniae, ATCCBAA1705; KPC-2 carbapenemase producing strain; cation-adjusted Mueller Hinton broth containing human apo-transferrin; 5×10^5 cfu/mL; read-out: Minimum Inhibitory Concentration (MIC) K. pneumoniae ATCCBAA-1705
Experimental Readout: MIC

CC(C)(O/N=C(\C(=O)N[C@@H]1C(=O)N2C(c3nnn[n-]3)=C(C[N+](C)(C)CCNC(=O)c3ccc(O)c(O)c3Cl)CS[C@H]12)c1csc(N)n1)C(=O)[O-].[Na+]: ≤ 0.031 µg/mL
CC(C)(O/N=C(\C(=O)N[C@@H]1C(=O)N2C(c3nnn[n-]3)=C(C[n+]3cccc(NC(=O)c4ccc(O)c(O)c4Cl)c3)CS[C@H]12)c1csc(N)n1)C(=O)[O-].[Na+]: ≤ 0.031 µg/mL

MIC of CC(C)(O/N=C(\C(=O)N[C@@H]1C(=O)N2C(c3nnn[n-]3)=C(C[N+]3(CCNC(=O)c4cc(O)c(O)cc4Cl)CCCC3)CS[C@H]12)c1csc(N)n1)C(=O)[O-].[Na+] on K. pneumoniae ATCCBAA-1705?
≤ 0.031 µg/mL

What is its MIC for K. pneumoniae ATCCBAA-1705? Entry: CC(C)(O/N=C(\C(=O)N[C@@H]1C(=O)N2C(c3nnn[n-]3)=C(C[N+]34CCC[C@H]3CN(C(=O)c3cc(O)c(O)c(F)c3)CC4)CS[C@H]12)c1csc(N)n1)C(=O)[O-].[Na+] (stereo partly shown)
0.063 µg/mL

Lab request: please report MIC under test system K. pneumoniae ATCCBAA-1705 for CC(C)(O/N=C(\C(=O)N[C@@H]1C(=O)N2C(c3nn[n-]n3)=C(C[N+]3(Cc4nnc(-c5ccc(O)c(O)c5Cl)o4)CCCC3)CS[C@H]12)c1csc(N)n1)C(=O)[O-].[Na+]
≤ 0.031 µg/mL

====

Each entry below carries its recorded MIC.
- System: P. aeruginosa SR01332
- Assay Text: MIC, CLSI broth microdilution, Test Example 2
- Format: cell-based
- Applied Conditions: Pseudomonas aeruginosa, SR01332; VIM-11 MBL producing strain (carbapenem resistance strain); cation-adjusted Iso-Sensitest broth containing human Apo-transferrin; 5×10^5 cfu/mL; read-out: Minimum Inhibitory Concentration (MIC) P. aeruginosa SR01332
// note: answer is a bare numeric in µg/mL

These recorded examples may help you get a feel for the data.
CC(C)(O/N=C(\C(=O)N[C@@H]1C(=O)N2C(c3nnn[nH]3)=C(C[N+]3(CCNC(=O)c4ccc(O)c(O)c4F)CCCC3)CS[C@H]12)c1nsc(N)n1)C(=O)[O-]: 2
Nc1nc(/C(=N/O[C@@H](CC(=O)O)C(=O)[O-])C(=O)N[C@@H]2C(=O)N3C(c4nnn[nH]4)=C(C[N+]4(CCNC(=O)c5cc(O)c(O)c(F)c5)CCCC4)CS[C@H]23)c(Cl)s1: 2
CC(C)(O/N=C(\C(=O)N[C@@H]1C(=O)N2C(c3nnn[nH]3)=C(C[N@+]34CCC[C@H]3CN(C(=O)c3cc(O)c(O)c(F)c3)CC4)CS[C@H]12)c1nsc(N)n1)C(=O)[O-]: 2
C[N+]1(CC2=C(c3nnn[nH]3)N3C(=O)[C@@H](NC(=O)/C(=N\O[C@@H](CC(=O)O)C(=O)O)c4nc(N)sc4Cl)[C@H]3SC2)[C@@H]2CC[C@H]1C[C@@H](NC(=O)c1ccc(O)c(O)c1Cl)C2.[Na+].[Na+] (stereo partly drawn): 4
Nc1nc(/C(=N/OC(C(=O)[O-])C(=O)[O-])C(=O)N[C@@H]2C(=O)N3C(C(=O)[O-])=C(C[N+]45CCC(CNC(=O)c6ccc(O)c(O)c6Cl)(CC4)CC5)CS[C@H]23)cs1.[Na+].[Na+] (stereo partly drawn) [Comparative Compound 2, reference compound]: 32
CC(C)(O/N=C(\C(=O)N[C@@H]1C(=O)N2C(c3nnn[n-]3)=C(C[N+]3(C)[C@@H]4CC[C@H]3C[C@@H](NC(=O)c3ccc(O)c(O)c3Cl)C4)CS[C@H]12)c1nc(N)sc1Cl)C(=O)[O-].[Na+] (stereo partly drawn): 8
CC(C)(O/N=C(\C(=O)N[C@@H]1C(=O)N2C(c3nnn[nH]3)=C(C[N+]3(CCNC(=O)c4cc(O)c(O)c(Cl)c4)CCCC3)CS[C@H]12)c1nsc(N)n1)C(=O)[O-]: 4
CC(C)(O/N=C(\C(=O)N[C@@H]1C(=O)N2C(c3nnn[nH]3)=C(C[N+]3(CCNC(=O)c4cc(O)c(O)c(F)c4)CCCC3)CS[C@H]12)c1nc(N)sc1Cl)C(=O)[O-]: 4

Could you now look at the following compound, please?
Consider the compound C[N+]1(CC2=C(c3nnn[n-]3)N3C(=O)[C@@H](NC(=O)/C(=N\O[C@@H](CC(=O)[O-])C(=O)[O-])c4csc(N)n4)[C@H]3SC2)CCN(C(=O)c2ccc(O)c(O)c2Cl)CC1.[Na+].[Na+] and give its measured MIC.
4

Where these numbers come from: patent US9334289B2
